// reported IC50 per item
# System: VCaP cells
# measurement.protocol: VCaP growth inhibition assay (CTG)
# Type: cell-based
# particulars: Homo sapiens, 216 h, 30 pM R1881, 9 days
# Protocol: VCaP cells (ATCC Cat #CRL-2876) are plated at 1×10^4 cells per well of a white plastic 96-well cluster plate (Thermo Scientific Nunc Cat #165306) in 100 uL phenol red-free DMEM (Gibco Cat #21063-029) media with 5% CSS (Omega Scientific Cat #FB-04). Cluster plates are returned to the incubator (37*C/5% CO2) for 72 hours prior to treatment. […]

{"compound": "CC(=O)N1CCc2c(c(N3CCCc4ccc(C(F)F)cc43)nn2C2CC3(C2)CN(CC2CC4(C2)CN(c2ccc(C(=O)N[C@H]5CC[C@H](Oc6ccc(C#N)c(Cl)c6)CC5)nn2)C4)C3)C1 (stereo partly drawn)", "IC50": "0.1 to 1 nM"}

Q: VCaP cells / IC50 / `CC(=O)N1CCc2c(c(N3CCCc4cc(C)ncc43)nn2C2CCN(CC3CCN(c4ccc(C(=O)N[C@H]5CC[C@H](Oc6ccc(C#N)c(Cl)c6)CC5)nn4)CC3)CC2)C1` : value?
Ans: ≤ 0.1 nM

Q: What do you get for `CC(=O)N1CCc2c(c(N3CCCc4cc(-c5cnn(C)c5)c(C)cc43)nn2C2CCN(C3CCC4(CC3)CN(c3ccc(C(=O)N[C@H]5CC[C@H](Oc6ccc(C#N)c(C)c6C)CC5)nn3)C4)CC2)C1` ?
Ans: ≤ 0.1 nM

Q: What do you get for `C[C@@H]1CC(=O)Nc2cccc(N3CCCc4cc(-c5cnn(CCC6CCN(c7ccc(C(=O)N[C@H]8CC[C@H](Oc9ccc(C#N)c(Cl)c9)CC8)nn7)CC6)c5)c(C(F)F)cc43)c2N1` ?
Ans: 1 to 100 nM

Q: What do you get for `CC(=O)N1CCc2c(c(N3CCCc4cc(-c5ccn(C)n5)c(C(F)F)cc43)nn2C2CCN(CC3CCN(c4ccc(C(=O)N[C@H]5CC[C@H](Oc6ccc(C#N)c(Cl)c6)CC5)nn4)CC3)CC2)C1` ?
Ans: ≤ 0.1 nM

Q: What do you get for `COc1cc(O[C@H]2CC[C@H](NC(=O)c3ccc(N4CCC(C(=O)N5CCC(n6nc(N7CCCc8cc(-c9cnn(C)c9)c(C(F)F)cc87)c7c6CCN(C(C)=O)C7)CC5)CC4)cc3)CC2)ccc1C#N` ?
Ans: ≤ 0.1 nM

Q: What do you get for `CC(=O)N1CCc2c(c(N3CCCc4cc(-c5cnn(C)c5)c(C)cc43)nn2C2CCN(C[C@H]3[C@H](C)CN(c4ccc(C(=O)N[C@H]5CC[C@H](Oc6ccc(C#N)c(Cl)c6)CC5)nn4)C[C@@H]3C)CC2)C1` ?
Ans: ≤ 0.1 nM

Q: What do you get for `CC(=O)N1CCc2c(c(N3CCCc4cc(-c5cnn(C)c5)c(C(F)F)cc43)nn2C2CCN(C(=O)COC3CCN(c4ccc(C(=O)N[C@H]5CC[C@H](Oc6ccc(C#N)c(Cl)c6)CC5)nn4)CC3)CC2)C1` ?
Ans: ≤ 0.1 nM

Q: What do you get for `CC(=O)N1CCc2c(c(-c3cccc4cc(C)ncc34)nn2C2CCN(CC3CCN(c4ccc(C(=O)N[C@H]5CC[C@H](Oc6ccc(C#N)c(Cl)c6)CC5)nn4)CC3)CC2)C1` ?
Ans: 0.1 to 1 nM
